# targetUnderTest: human GPR43 (Homo sapiens)
# Sequence (O15552 whole entry): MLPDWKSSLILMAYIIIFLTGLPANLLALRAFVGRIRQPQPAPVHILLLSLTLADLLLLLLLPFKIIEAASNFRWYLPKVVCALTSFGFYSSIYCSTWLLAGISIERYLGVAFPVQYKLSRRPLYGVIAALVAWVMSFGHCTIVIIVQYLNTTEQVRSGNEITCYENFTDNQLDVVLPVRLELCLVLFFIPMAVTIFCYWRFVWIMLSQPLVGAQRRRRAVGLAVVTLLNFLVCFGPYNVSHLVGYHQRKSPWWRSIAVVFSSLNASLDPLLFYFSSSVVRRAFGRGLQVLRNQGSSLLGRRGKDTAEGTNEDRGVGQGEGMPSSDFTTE
# assayInfo: GloSensor cAMP assay in HEK293-hGPR43 cells
# Assay type: cell-based
valueType: EC50 (µM)
One number for each entry, in µM.

>>> measuredresult("Cc1nc(N2C[C@@H](C)O[C@@H](C)C2)c2[nH]c(N)c(S(=O)(=O)c3ccccc3F)c2n1 [Compound 187]")
0.016

Look up EC50 of Cc1nc(N2CCCC(C)C2)c2[nH]c(N)c(S(=O)(=O)c3ccccc3)c2n1 (centres unmarked) [Compound 110] and report it.
18.7

====

# targetUnderTest: human GPR43 (Homo sapiens)
# assayInfo: Ca2+ flux assay in HEK293-hGPR43 cells
# Format: cell-based
# recordedConditions: read-out: EC50 Ca^2+; HEK293-hGPR43
valueType: EC50 (µM)
Give bare numbers, in µM.

Look up EC50 of CC(=O)[O-].[Na+] [Acetate, sodium acetate, reference compound] and report it.
57.7
